# pIC50 annotations
testedOn: human Nav1.8/b3 (Homo sapiens, UniProt Q9Y5Y9)
Construct: expressed in transfected cells; host or cells: CHO
Sequence (Q9Y5Y9 whole entry): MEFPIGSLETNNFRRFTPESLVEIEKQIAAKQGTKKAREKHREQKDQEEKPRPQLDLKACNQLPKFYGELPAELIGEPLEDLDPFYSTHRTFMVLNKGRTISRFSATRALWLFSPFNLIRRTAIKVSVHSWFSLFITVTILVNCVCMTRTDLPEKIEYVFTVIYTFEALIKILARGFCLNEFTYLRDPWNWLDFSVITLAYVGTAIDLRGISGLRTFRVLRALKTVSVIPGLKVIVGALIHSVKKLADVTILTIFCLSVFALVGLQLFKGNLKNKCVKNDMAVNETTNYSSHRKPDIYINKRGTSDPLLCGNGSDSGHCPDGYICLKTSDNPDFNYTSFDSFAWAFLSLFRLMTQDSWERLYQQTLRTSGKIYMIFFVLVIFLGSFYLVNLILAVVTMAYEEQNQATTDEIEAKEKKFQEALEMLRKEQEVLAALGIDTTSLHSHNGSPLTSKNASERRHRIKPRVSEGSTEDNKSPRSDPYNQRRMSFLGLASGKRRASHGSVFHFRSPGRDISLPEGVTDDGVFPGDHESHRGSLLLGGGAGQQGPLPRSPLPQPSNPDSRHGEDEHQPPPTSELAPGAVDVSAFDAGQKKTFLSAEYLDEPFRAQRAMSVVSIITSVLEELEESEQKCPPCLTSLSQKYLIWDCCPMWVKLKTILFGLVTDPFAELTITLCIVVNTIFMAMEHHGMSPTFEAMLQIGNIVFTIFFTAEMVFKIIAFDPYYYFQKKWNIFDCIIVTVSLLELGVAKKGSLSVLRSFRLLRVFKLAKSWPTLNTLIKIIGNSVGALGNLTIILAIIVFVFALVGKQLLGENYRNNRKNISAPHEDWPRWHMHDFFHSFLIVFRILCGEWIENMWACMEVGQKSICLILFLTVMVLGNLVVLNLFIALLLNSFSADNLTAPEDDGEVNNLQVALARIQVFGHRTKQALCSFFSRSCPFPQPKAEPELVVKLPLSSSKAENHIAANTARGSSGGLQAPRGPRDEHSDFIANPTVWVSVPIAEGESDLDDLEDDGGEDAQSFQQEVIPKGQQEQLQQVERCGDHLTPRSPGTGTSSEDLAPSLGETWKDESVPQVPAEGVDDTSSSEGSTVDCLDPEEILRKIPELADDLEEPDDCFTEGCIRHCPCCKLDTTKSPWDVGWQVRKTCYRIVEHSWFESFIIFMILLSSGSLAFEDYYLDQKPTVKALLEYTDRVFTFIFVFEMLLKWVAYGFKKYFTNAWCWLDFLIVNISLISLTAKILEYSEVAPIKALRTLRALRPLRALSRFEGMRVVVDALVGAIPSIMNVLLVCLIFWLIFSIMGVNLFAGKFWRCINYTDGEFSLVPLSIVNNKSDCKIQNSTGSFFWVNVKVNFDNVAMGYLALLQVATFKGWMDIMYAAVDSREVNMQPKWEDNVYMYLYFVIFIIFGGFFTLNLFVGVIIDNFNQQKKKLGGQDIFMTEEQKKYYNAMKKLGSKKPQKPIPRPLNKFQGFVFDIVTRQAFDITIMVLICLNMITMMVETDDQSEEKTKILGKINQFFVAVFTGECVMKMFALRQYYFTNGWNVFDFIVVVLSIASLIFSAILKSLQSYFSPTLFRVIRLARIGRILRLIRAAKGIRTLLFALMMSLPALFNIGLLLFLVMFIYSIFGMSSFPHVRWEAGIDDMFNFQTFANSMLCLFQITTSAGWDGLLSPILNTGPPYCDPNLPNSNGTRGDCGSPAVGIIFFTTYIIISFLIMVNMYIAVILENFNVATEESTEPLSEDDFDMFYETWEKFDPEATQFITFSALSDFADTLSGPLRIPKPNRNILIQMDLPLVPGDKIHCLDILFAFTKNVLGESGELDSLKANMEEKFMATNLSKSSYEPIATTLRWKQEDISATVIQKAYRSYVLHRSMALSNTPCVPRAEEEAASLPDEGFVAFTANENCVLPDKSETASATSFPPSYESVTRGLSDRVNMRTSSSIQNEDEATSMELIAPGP
Sequence (Q9NY72 23-215 partner): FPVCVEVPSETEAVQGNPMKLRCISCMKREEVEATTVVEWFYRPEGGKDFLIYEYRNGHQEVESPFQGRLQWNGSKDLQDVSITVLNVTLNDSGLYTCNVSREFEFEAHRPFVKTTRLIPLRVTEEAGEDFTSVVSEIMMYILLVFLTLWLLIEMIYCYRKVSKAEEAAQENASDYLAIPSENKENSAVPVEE
method: Compound Profiling Human NaV1.8/β3 Cell Line—SyncroPatch384PE Assay (automated patch clamp, stably transfected CHO cells)
Format: cell-based
testContext: P1 (IC50, resting state block), P1 measurement, resting state block; Nav1.8/b3 CHO cells, holding potential −120 mV; second set of compounds
pIC50: −log10 of the molar value.

Answered examples (5):
>  <compound>
Cc1nc(F)ccc1Oc1ccc(C(F)(F)F)c(F)c1C(=O)Nc1cccc([S@@](C)(=O)=NC(=O)CN)c1 [Example 16B]

>  <testedOn>
human Nav1.8/b3 (Homo sapiens, UniProt Q9Y5Y9)

>  <measuredQuantity>
pIC50

>  <valueObserved>
> 8.30

$$$$
>  <compound>
Cc1nc(F)ccc1Oc1cc(C(F)(F)F)c(Cl)cc1C(=O)Nc1cccc([S@@](C)(=O)=NC(=O)[C@H](C)O)c1

>  <testedOn>
human Nav1.8/b3 (Homo sapiens, UniProt Q9Y5Y9)

>  <measuredQuantity>
pIC50

>  <valueObserved>
> 8.30

$$$$
>  <compound>
Cc1nc(F)ccc1Oc1cc(C(F)(F)F)ccc1C(=O)Nc1cccc([S@@](C)(=O)=NC(=O)[C@@H](C)O)c1 [Example 13B]

>  <testedOn>
human Nav1.8/b3 (Homo sapiens, UniProt Q9Y5Y9)

>  <measuredQuantity>
pIC50

>  <valueObserved>
7.30 to 8.30

$$$$
>  <compound>
Cc1nc(F)ccc1Oc1cc(C(F)(F)F)ccc1C(=O)Nc1cccc([S@@](C)(=O)=NC(=O)[C@@H](C)N)c1

>  <testedOn>
human Nav1.8/b3 (Homo sapiens, UniProt Q9Y5Y9)

>  <measuredQuantity>
pIC50

>  <valueObserved>
> 8.30

$$$$
>  <compound>
Cc1nc(F)ccc1Oc1ccc(C(F)(F)F)c(F)c1C(=O)Nc1cccc([S@@](C)(=O)=NC(=O)[C@@H]2CCCN2)c1 [Example 21B]

>  <testedOn>
human Nav1.8/b3 (Homo sapiens, UniProt Q9Y5Y9)

>  <measuredQuantity>
pIC50

>  <valueObserved>
7.30 to 8.30

$$$$

Asked: // pIC50 lookup, key: Cc1nc(F)ccc1Oc1cc(C(F)(F)F)ccc1C(=O)Nc1cccc([S@@](C)(=O)=NC(=O)CN)c1 [Example 14B]
Given back: 7.30 to 8.30

Asked: Which pIC50 is reported for this compound? CNCC(=O)N=[S@](C)(=O)c1cccc(NC(=O)c2c(Oc3ccc(F)nc3C)ccc(C(F)(F)F)c2F)c1 [Example 17B]
Given back: > 8.30

Asked: Bench note: what pIC50 did Cc1nc(F)ccc1Oc1ccc(C(F)(F)F)c(C)c1C(=O)Nc1cccc([S@@](C)(=O)=NC(=O)[C@@H]2CCCN2)c1 [Example 22B] show?
Given back: > 8.30

Asked: Could you share which pIC50 value was measured for Cc1nc(F)ccc1Oc1ccc(C(F)(F)F)c(F)c1C(=O)Nc1cccc([S@@](C)(=O)=NC(=O)[C@@H](C)O)c1 [Example 19B] ?
Given back: > 8.30

Asked: I am curious: what pIC50 value has been reported for Cc1nc(F)ccc1Oc1cc(C(F)(F)F)c(Cl)cc1C(=O)Nc1cccc([S@@](C)(=O)=NC(=O)[C@@H](C)O)c1 ?
Given back: > 8.30

Asked: Tell me the measured pIC50 of Cc1nc(F)ccc1Oc1ccc(C(F)(F)F)c(F)c1C(=O)Nc1cccc([S@@](C)(=O)=NC(=O)[C@@H](C)N)c1 [Example 15B] , please.
Given back: > 8.30
